test: LD50 (mouse, ip.); type: in vivo; settings: in vivo, ip
measurement-label: LD50 (mg/kg)
# unit: mg/kg | format: bare number

Please give measured LD50 of the following entry: COC1=C(C)C(=O)C2=C(C1=O)C(COC(N)=O)C1(O)C3C(CN21)N3C (stereo not drawn) [9-epi-mitomycin B] 7.5
